- EXPERIMENTAL_TARGET: T1, cynomolgus monkey GPRC5D (cynomolgus monkey)
- T1 construct: whole, on cells; HEK293T-cynoGPRC5D cells; also called cynoGPRC5D
- TEST: FACS, HEK293T-cynoGPRC5D cells
RECORDED_METRIC: EC50

[
  {
    "BINDER": "ch28H9C12 (antibody, V domains shown) VH: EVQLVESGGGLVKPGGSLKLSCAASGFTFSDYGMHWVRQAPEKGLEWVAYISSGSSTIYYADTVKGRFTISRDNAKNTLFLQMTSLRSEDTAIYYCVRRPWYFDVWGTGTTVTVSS VL: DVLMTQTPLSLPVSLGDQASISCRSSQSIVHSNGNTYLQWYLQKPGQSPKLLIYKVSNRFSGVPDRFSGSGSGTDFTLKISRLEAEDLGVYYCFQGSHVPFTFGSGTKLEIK",
    "RECORDED_METRIC": "EC50",
    "TEST_VALUE": "14.8 nM"
  },
  {
    "BINDER": "ch101B3G3 (antibody, V domains shown) VH: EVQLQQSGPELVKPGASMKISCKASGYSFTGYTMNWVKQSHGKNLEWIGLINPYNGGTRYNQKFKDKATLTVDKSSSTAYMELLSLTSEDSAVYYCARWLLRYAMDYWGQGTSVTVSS VL: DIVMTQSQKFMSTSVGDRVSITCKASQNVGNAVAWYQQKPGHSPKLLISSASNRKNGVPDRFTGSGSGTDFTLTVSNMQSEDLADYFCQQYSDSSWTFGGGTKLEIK",
    "RECORDED_METRIC": "EC50",
    "TEST_VALUE": "9.2 nM"
  },
  {
    "BINDER": "ch89F11E3 (antibody, V domains shown) VH: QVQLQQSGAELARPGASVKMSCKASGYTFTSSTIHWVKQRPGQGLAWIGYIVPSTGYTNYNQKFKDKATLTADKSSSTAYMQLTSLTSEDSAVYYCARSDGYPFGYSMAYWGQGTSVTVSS VL: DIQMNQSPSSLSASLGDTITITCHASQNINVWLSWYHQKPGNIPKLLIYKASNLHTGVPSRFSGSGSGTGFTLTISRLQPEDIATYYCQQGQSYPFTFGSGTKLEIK",
    "RECORDED_METRIC": "EC50",
    "TEST_VALUE": "278 nM"
  }
]
